Values compiled from patent US20240366638A1.

- Test system: male C57BL/6 mice
- assay_protocol: Open field test (OFT), locomotor activity
- Assay type: in vivo
- condition: summary of effect on overall locomotor activity, doses tested IP, mice
measure_name: OFT

smiles_entry	val
CNCCc1c[nH]c2cccc(OP(=O)(O)O)c12	↓ (neg)
C[N+](C)(C)CCc1c[nH]c2cccc(OP(=O)(O)O)c12	↓ (neg)
NCCc1c[nH]c2cccc(OP(=O)(O)O)c12	ns
CNCCc1c[nH]c2cccc(O)c12	↓ (neg)
